# Activity values compiled below
target: Protein cereblon/Phospholipid hydroperoxide glutathione peroxidase GPX4 (Homo sapiens) (UniProt Q96SW2+P36969); assay: PROTAC activity at CRBN/GPX4 in human HT-1080 cells assessed as induction of GPX4 degradation at 1 uM incubated for 24 hrs by Western blot analysis relative to control; assay type: cell-based
Sequence (P36969 whole entry, looked up): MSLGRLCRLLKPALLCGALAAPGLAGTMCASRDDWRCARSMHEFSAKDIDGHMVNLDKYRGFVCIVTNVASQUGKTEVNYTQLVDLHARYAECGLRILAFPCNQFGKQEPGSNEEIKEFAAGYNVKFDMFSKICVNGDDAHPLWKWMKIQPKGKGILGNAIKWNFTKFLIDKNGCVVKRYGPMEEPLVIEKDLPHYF
Sequence (Q96SW2 whole entry, looked up): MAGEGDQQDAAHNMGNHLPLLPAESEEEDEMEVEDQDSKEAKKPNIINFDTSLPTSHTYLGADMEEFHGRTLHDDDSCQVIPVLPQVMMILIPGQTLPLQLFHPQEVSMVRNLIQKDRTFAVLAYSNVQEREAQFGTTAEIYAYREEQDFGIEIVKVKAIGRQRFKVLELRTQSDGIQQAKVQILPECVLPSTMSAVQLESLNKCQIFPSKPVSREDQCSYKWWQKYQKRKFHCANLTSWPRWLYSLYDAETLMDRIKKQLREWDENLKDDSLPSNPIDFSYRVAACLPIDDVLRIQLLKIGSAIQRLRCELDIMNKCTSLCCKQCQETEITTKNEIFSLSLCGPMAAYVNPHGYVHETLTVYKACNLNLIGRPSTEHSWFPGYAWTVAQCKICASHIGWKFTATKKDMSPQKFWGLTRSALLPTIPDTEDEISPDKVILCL
Write the answer as a number in %, unit excluded.

{"compound": "Cc1onc(C(=O)N2CCN(C(c3ccc(Cl)cc3)c3ccc(OCC(=O)N4CCN(CCCCCCCCCCCCCNc5cccc6c5CN(C5CCC(=O)NC5=O)C6=O)CC4)cc3)CC2)c1[N+](=O)[O-] (stereo not given)", "measured value": 36}

# input for lookup
Query: Can you share its Activity? I mean this compound: Cc1onc(C(=O)N2CCN(C(c3ccc(Cl)cc3)c3ccc(OCC(=O)N4CCN(CCCCCCCCCCCNc5cccc6c5CN(C5CCC(=O)NC5=O)C6=O)CC4)cc3)CC2)c1[N+](=O)[O-] (stereo not given)
Response: 54
